Target: Glucocorticoid Receptor (Homo sapiens)
Construct: expressed in transfected cells
Sequence (P04150 524-758 limits assumed): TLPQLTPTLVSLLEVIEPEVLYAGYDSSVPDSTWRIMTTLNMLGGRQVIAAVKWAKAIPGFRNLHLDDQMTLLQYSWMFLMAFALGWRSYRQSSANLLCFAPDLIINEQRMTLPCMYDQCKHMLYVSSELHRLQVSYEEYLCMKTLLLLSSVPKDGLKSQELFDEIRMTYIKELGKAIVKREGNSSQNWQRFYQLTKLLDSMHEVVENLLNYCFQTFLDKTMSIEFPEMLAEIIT
Test: Agonistic mode of action on the glucocorticoid receptor (CHO-Gal4/GR luciferase reporter cell line)
Assay type: cell-based
Settings: CHO-Gal4/GR luciferase reporter cells; observed in the agonistic assay or the antagonistic assay (mode not given); read-out: IC50 or EC50 range
Measured Attribute: IC50 or EC50 (antagonist or agonist mode, not stated per compound)

Molecule: COc1c(-c2cc(F)cc3c2cnn3S(C)(=O)=O)cc(Cl)c2c1-n1c(C)nnc1C(C)(C)N2 [Example 493]
Target Desc: Glucocorticoid Receptor (Homo sapiens)
Result: 100 to 1000 nM

Molecule: COc1c(-c2cc(F)cc3cc[nH]c23)cc(F)c2c1-n1c(C)nnc1C(C)(C)N2 [Example 515]
Target Desc: Glucocorticoid Receptor (Homo sapiens)
Result: 100 to 1000 nM

Molecule: COCCn1ccc2c(-c3cc(F)c4c(c3C)-n3c(C)nnc3C(C)(C)N4)cccc21 [Example 300]
Target Desc: Glucocorticoid Receptor (Homo sapiens)
Result: 100 to 1000 nM

Molecule: Cc1c(-c2ccc(C#N)c3[nH]ccc23)c(F)c(F)c2c1-n1c(C)nnc1C(C)(C)N2 [Example 520]
Target Desc: Glucocorticoid Receptor (Homo sapiens)
Result: 100 to 1000 nM

Molecule: COc1c(-c2cc(F)cc3c2ccn3S(C)(=O)=O)c(F)c(F)c2c1-n1c(C)nnc1C(C)(C)N2 [Example 498]
Target Desc: Glucocorticoid Receptor (Homo sapiens)
Result: < 100 nM

Molecule: Cc1c(-c2ccc(F)c3[nH]ncc23)cc(F)c2c1-n1c(C)nnc1C(C)(C)N2 [Example 517]
Target Desc: Glucocorticoid Receptor (Homo sapiens)
Result: 100 to 1000 nM

Molecule: Cc1c(-c2cccc3c2ccn3CCN(C)C)cc(F)c2c1-n1c(C)nnc1C(C)(C)N2 [Example 375]
Target Desc: Glucocorticoid Receptor (Homo sapiens)
Result: 100 to 1000 nM

Molecule: Cc1cc(-c2cc(F)c3c(c2C)-n2c(C)nnc2C(C)(C)N3)c2ccn(S(C)(=O)=O)c2c1 [Example 475]
Target Desc: Glucocorticoid Receptor (Homo sapiens)
Result: 100 to 1000 nM

Molecule: Cc1c(-c2cccc3c2cnn3S(C)(=O)=O)cc(Cl)c2c1-n1c(C)nnc1C(C)(C)N2 [Example 458]
Target Desc: Glucocorticoid Receptor (Homo sapiens)
Result: 100 to 1000 nM

Molecule: COc1c(-c2cccc3c2ccn3S(=O)(=O)C2CC2)cc(F)c2c1-n1c(C)nnc1C(C)(C)N2 [Example 505]
Target Desc: Glucocorticoid Receptor (Homo sapiens)
Result: 100 to 1000 nM

Molecule: COc1c(-c2cccc3c2ccn3C)cc(F)c2c1-n1c(C)nnc1C(C)(C)N2 [Example 485]
Target Desc: Glucocorticoid Receptor (Homo sapiens)
Result: 100 to 1000 nM

Molecule: CCc1nnc2n1-c1c(C)c(-c3cc(F)cc4c3ccn4S(C)(=O)=O)cc(F)c1NC2(C)C [Example 323]
Target Desc: Glucocorticoid Receptor (Homo sapiens)
Result: 100 to 1000 nM

Molecule: Cc1c(-c2cccc3[nH]ncc23)cc(F)c2c1-n1c(C)nnc1C(C)(C)N2 [Example 504]
Target Desc: Glucocorticoid Receptor (Homo sapiens)
Result: 100 to 1000 nM

Molecule: CCc1c(-c2cc(F)cc3c2ccn3CCO)cc(F)c2c1-n1c(C)nnc1C(C)(C)N2 [Example 464]
Target Desc: Glucocorticoid Receptor (Homo sapiens)
Result: 100 to 1000 nM

Molecule: Cc1nnc2n1-c1c(c(F)cc(-c3cccc4c3ccn4S(C)(=O)=O)c1C(F)F)NC2(C)C [Example 459]
Target Desc: Glucocorticoid Receptor (Homo sapiens)
Result: < 100 nM

Molecule: Cc1c(-c2cccc3c(C)n[nH]c23)cc(F)c2c1-n1c(C)nnc1C(C)(C)N2 [Example 352]
Target Desc: Glucocorticoid Receptor (Homo sapiens)
Result: 100 to 1000 nM

Molecule: CCc1nnc2n1-c1c(C)c(-c3cccc4c(C)c[nH]c34)cc(F)c1NC2(C)C [Example 355]
Target Desc: Glucocorticoid Receptor (Homo sapiens)
Result: 100 to 1000 nM

Molecule: Cc1c(-c2cc(F)cc3c2ccn3S(C)(=O)=O)cc(Cl)c2c1-n1c(C)nnc1C(C)(C)N2 [Example 457]
Target Desc: Glucocorticoid Receptor (Homo sapiens)
Result: < 100 nM

Molecule: COc1cc(-c2cc(F)c3c(c2C)-n2c(C)nnc2C(C)(C)N3)c2ccn(S(C)(=O)=O)c2c1 [Example 523]
Target Desc: Glucocorticoid Receptor (Homo sapiens)
Result: 100 to 1000 nM

Molecule: Cc1c(-c2cccc3c2ccn3S(=O)(=O)C2CC2)cc(F)c2c1-n1c(C)nnc1C(C)(C)N2 [Example 391]
Target Desc: Glucocorticoid Receptor (Homo sapiens)
Result: < 100 nM

Molecule: Cc1c(-c2cccc3c2ccn3C2CC2)cc(F)c2c1-n1c(C)nnc1C(C)(C)N2 [Example 305]
Target Desc: Glucocorticoid Receptor (Homo sapiens)
Result: < 100 nM

Molecule: CCc1c(-c2cc(F)cc3c2cnn3S(C)(=O)=O)cc(F)c2c1-n1c(C)nnc1C(C)(C)N2 [Example 53]
Target Desc: Glucocorticoid Receptor (Homo sapiens)
Result: 100 to 1000 nM

Molecule: Cc1c(-c2cccc3c2cnn3C)cc(F)c2c1-n1c(C)nnc1C(C)(C)N2 [Example 304]
Target Desc: Glucocorticoid Receptor (Homo sapiens)
Result: 100 to 1000 nM

Molecule: Cc1nnc2n1-c1c(c(F)c(F)c(-c3cc(F)cc4c3ccn4S(C)(=O)=O)c1C(F)(F)F)NC2(C)C [Example 518]
Target Desc: Glucocorticoid Receptor (Homo sapiens)
Result: 100 to 1000 nM

Molecule: Cc1c(-c2cccc3[nH]ccc23)cc(F)c2c1-n1c(C)nnc1C(C)(C)N2 [Example 468]
Target Desc: Glucocorticoid Receptor (Homo sapiens)
Result: < 100 nM

Molecule: COc1c(-c2ccc(F)c3[nH]ncc23)cc(F)c2c1-n1c(C)nnc1C(C)(C)N2 [Example 489]
Target Desc: Glucocorticoid Receptor (Homo sapiens)
Result: 100 to 1000 nM

Molecule: Cc1c(-c2cccc3c2ccn3CC(F)F)cc(F)c2c1-n1c(C)nnc1C(C)(C)N2 [Example 326]
Target Desc: Glucocorticoid Receptor (Homo sapiens)
Result: 100 to 1000 nM

Molecule: Cc1c(-c2cc(Cl)cc3[nH]ccc23)cc(F)c2c1-n1c(C)nnc1C(C)(C)N2 [Example 506]
Target Desc: Glucocorticoid Receptor (Homo sapiens)
Result: 100 to 1000 nM

Molecule: Cc1c(-c2cc(F)cc3c(C4CC4)c[nH]c23)cc(F)c2c1-n1c(C)nnc1C(C)(C)N2 [Example 38]
Target Desc: Glucocorticoid Receptor (Homo sapiens)
Result: < 100 nM

Molecule: COc1cc(-c2cc(F)c3c(c2OC)-n2c(C)nnc2C(C)(C)N3)c2ccn(S(C)(=O)=O)c2c1 [Example 524]
Target Desc: Glucocorticoid Receptor (Homo sapiens)
Result: 100 to 1000 nM

Molecule: CNc1c(-c2cccc3c2ccn3C2CC2)cc(F)c2c1-n1c(C)nnc1C(C)(C)N2 [Example 481]
Target Desc: Glucocorticoid Receptor (Homo sapiens)
Result: 100 to 1000 nM

Reference source for all entries: patent US11981677B2
